- MEASUREMENT_TARGET: BTK-1h (Homo sapiens)
- Construct: The BTK kinase domain was diluted to 2 μM in the buffer, and 2 μM 1h was added; made in house
- Sequence (Q06187 402-655): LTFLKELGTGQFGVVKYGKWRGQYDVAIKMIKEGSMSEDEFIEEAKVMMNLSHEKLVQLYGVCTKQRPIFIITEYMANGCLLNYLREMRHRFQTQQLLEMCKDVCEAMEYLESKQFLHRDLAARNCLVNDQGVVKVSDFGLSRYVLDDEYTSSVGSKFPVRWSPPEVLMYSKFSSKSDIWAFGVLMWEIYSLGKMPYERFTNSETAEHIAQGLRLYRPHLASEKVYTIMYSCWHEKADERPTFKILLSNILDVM
- TEST: High-throughput screening with 1h-labeled BTK
- Format: binding
- APPLIED_CONDITIONS: Dataset S2A; 200 μM compound, BTK-1h, 32 °C, 10 min
MEASURED_ATTRIBUTE: FI (BTK-1h)/FI (BTK-1h+Inhibitor) at 620 nm
Give bare numbers.

Here's what some known entries look like.
CN(C)C/C=C/C(=O)Nc1cc2c(Nc3ccc(F)c(Cl)c3)ncnc2cc1O[C@H]1CCOC1; 1.084
CN(C)C/C=C/C(=O)Nc1ccc(C(=O)Nc2cccc(Nc3ncc(Cl)c(-c4c[nH]c5ccccc45)n3)c2)cc1 [PCM-0213464-002, THZ1 2HCl]; 2.341
C[C@@H](Oc1ccc2[nH]nc(/C=C/c3cnn(CCO)c3)c2c1)c1c(Cl)cncc1Cl; 1.156

For each of the compounds below, state FI (BTK-1h)/FI (BTK-1h+Inhibitor) at 620 nm.
1. CN1CCN(Cc2ccc(NC(=O)Nc3ccc(Oc4cc(NC(=O)C5CC5)ncn4)cc3)cc2C(F)(F)F)CC1
2. COc1cccc2c1C(=O)c1c(O)c3c(c(O)c1C2=O)C[C@@](O)(C(=O)CO)C[C@@H]3O[C@H]1C[C@H](N)[C@H](O[C@@H]2CCCCO2)[C@H](C)O1
3. COc1cc(-c2oc3cc(O)cc(O)c3c(=O)c2O)ccc1O

[1.145, 1.012, 1.051]

Reported FI (BTK-1h)/FI (BTK-1h+Inhibitor) at 620 nm ( "C=CC(=O)Nc1cccc(Oc2nc(Nc3ccc(N4CCN(C)CC4)cc3)ncc2Cl)c1" ) = 1.02
